Biological target: T1, human PTH-1 receptor (human, UniProt Q03431 27-593)
T1 sequence (looked up): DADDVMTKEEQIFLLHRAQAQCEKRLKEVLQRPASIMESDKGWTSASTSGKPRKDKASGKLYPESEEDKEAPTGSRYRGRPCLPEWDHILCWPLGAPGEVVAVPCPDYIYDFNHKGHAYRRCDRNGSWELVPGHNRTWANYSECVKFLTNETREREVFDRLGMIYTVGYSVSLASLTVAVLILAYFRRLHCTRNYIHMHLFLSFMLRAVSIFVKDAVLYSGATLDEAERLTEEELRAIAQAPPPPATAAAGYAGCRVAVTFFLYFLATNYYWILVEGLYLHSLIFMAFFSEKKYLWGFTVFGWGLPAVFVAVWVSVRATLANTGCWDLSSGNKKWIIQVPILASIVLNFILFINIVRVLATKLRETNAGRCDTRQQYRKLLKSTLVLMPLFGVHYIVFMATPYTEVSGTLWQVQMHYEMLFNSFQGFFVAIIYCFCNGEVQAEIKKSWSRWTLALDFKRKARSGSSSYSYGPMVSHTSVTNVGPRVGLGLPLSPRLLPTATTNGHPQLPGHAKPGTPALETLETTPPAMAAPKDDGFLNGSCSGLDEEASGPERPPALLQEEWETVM
Test: cell-based or functional assay
No end group written: not given here.
attribute measured: PLC Activity (% Basal), 1000 nM peptide, transfected HEK-293 cells

VSEIQLMHNLGKHLNSMERVEWLRKKLQDVHNY-NH2 [hPTH-(2-34)] : 88

I. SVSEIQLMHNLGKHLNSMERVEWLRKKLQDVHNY-NH2 [hPTH-(1-34)]
II. SVSEIQLMHNLGKHLNSMERVEWLRKK-NH2 [hPTH-(1-27)]
III. SVSEIQLMHNLGKHLNSMERVEWLRKKL-NH2 [hPTH-(1-28)]
Could you please order the items by PLC Activity (% Basal), 1000 nM peptide, transfected HEK-293 cells, going from the lowest number to the highest? Labels, requested order. II, III, I
(II: 95 % Basal, III: 305 % Basal, I: 854 % Basal)
